Listed compounds paired with reported melting point
Express it in °C; write the number only.

Worked examples, 2 compounds total:
> print(dat)
                            chemical.smiles  quantity.kind  unit.abbreviation  assay.result
1  CC1(Oc2cccc(-c3ccccc3)c2)C(=O)NC(=O)NC1=O  melting point                 °C           175
2  CCCCC1(Oc2ccc(Oc3ccc(F)cc3)cc2)C(=O)NC(=O)NC1=O  melting point                 °C           183

Then this compound:
Prompt: Dear colleague, I am looking for the recorded melting point of the following compound: CC1(Oc2ccc(Oc3ccccc3)cc2)C(=O)NC(=O)NC1=O
Response: 182

---

quantity.kind: melting point

Worked examples, 2 molecules total:
> print(dat)
                            chemical.smiles   assay.result
1  CC1(Oc2ccc(Oc3ccc(F)cc3)cc2)C(=O)NC(=O)NC1=O  187 to 189 °C
2  CC1(Oc2ccc(-c3ccccc3)cc2)C(=O)NC(=O)NC1=O  200 to 202 °C

Then this molecule:
Prompt: Dear colleague, I am looking for the recorded melting point of the following molecule: CCCCC1(Oc2ccc(Oc3ccccc3)cc2)C(=O)NC(=O)NC1=O
Response: 59 to 60 °C

Data origin: patent US6579982B1
